target: G/T mismatch-specific thymine DNA glycosylase (Homo sapiens) (UniProt Q13569); settings: Compound Concentration 10.0 uM, Hit No;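 also: human TDG cleavage of quenched duplex DNA oligonucleotides coupled to APE1, strand release read as fluorescence at 594 nm, inhibition of TDG activity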
Sequence (Q13569 whole entry): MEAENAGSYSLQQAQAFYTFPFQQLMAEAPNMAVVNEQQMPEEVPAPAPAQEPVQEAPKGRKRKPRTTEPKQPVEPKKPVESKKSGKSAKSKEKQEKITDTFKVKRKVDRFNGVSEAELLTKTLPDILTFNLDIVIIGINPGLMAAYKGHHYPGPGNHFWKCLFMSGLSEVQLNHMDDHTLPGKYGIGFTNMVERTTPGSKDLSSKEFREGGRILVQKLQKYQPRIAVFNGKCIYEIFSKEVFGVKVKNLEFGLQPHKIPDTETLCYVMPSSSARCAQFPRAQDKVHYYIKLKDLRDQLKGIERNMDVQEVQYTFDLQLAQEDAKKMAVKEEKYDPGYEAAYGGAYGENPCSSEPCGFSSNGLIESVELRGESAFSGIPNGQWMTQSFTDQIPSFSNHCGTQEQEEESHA
Description: Inhibition of TDG by quantifying inhibition of TDG-mediated cleavage and dissociation of quenched duplex DNA oligonucleotides, measured as fluorescence at 594 nm. To generate a functional strand incision and increase turn-over this assay is coupled to APE1.
Listed here are compounds together with their documented inhibition.
Quick note: give the figure in %, leave out the unit.

Answered examples (10):
COc1cccc(Cn2cc(C(=O)Nc3ccc(C)c(S(=O)(=O)N4CCOCC4)c3)c(-c3ccc(C)cc3)n2)c1; 97.5
CC(C1CC2CCC1C2)n1c(S)nnc1-c1ccco1 (stereo not given); 22.6
Clc1ccccc1C(c1ccccc1)(c1ccccc1)n1cccn1; 10.7
CCOC(=O)c1ncn2c1CN(C)C(=O)c1cc(F)ccc1-2; 9.02
Cc1cn([C@H](C)CC#N)c(=O)c2cc(Cn3nc(C(F)F)cc3Cl)nn12; 31.2
CC(F)(F)CN1CCOc2c(nn(-c3ccccc3Cl)c2-c2ccc(Cl)cc2)C1=O; -6.66
O=C(Cc1ccccc1)Nc1nc2ccc(Cl)cc2c2nc(-c3ccco3)nn12; 4.82
COc1cc(F)ccc1-c1ncnc(Nc2cccc(C[S@](C)(=N)=O)c2)n1; 49.6
CC[S+]([O-])c1nc(-c2cccc(OCc3ccccc3)c2)cc(C(F)(F)F)n1 (stereo not given); 4.54
Nc1nc2c(c(N3CCNCC3)n1)CCC1=C2[C@@H]2CCCC[C@@H]2O1; 6.18

Fill in: inhibition of CCOc1ccc(S(=O)(=O)Nc2ccc(Cl)cc2C#Cc2cnc(C(=O)O)cc2OC)c2ncccc12 is ___
51.4

Fill in: inhibition of Cn1cc(-c2ccc3occ(-c4ccccc4-c4ccccc4)c3n2)cn1 is ___
33.2

* * *

biological target: N-glycosylase/DNA lyase (Homo sapiens) (UniProt O15527); conditions: Compound Concentration 10.0 uM, Hit No
Sequence (O15527 whole entry): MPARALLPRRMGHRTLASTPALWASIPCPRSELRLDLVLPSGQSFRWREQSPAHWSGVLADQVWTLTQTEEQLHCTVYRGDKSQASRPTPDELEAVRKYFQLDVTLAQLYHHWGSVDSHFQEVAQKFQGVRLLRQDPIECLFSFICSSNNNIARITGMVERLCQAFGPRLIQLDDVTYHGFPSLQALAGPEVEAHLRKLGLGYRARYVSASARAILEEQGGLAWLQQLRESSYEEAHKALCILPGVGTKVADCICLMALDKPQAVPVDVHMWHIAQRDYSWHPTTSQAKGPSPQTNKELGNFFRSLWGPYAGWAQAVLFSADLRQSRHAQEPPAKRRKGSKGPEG
Description: Inhibition of OGG1 by quantifying inhibition of OGG1-mediated cleavage and dissociation of quenched duplex DNA oligonucleotides, measured as fluorescence at 594 nm. To generate a functional strand incision and increase turn-over this assay is coupled to APE1.
Listed here are compounds together with their documented inhibition.
Quick note: give the figure in %, leave out the unit.

CC(C)(C(=O)O)c1ccc(C(O)CCCN2CCC(C(O)(c3ccccc3)c3ccccc3)CC2)cc1 (stereo not given); -9.14
CC(C)NCC(O)c1ccc(N)c(C#N)c1 (stereo not given); -2.67
c1cc(OCCCN2CCCCC2)ccc1CN1CCCCC1; -9.64
COc1cccc(OC)c1-c1cc(C(=O)NC2(C(=O)O)C3CC4CC(C3)CC2C4)nn1-c1ccc(C(=O)N(C)CCCN(C)C)cc1C(C)C (stereo not given); 3.59
Cc1onc(-c2ccccc2Cl)c1C(=O)N(C)c1ccc(Cl)cc1; -3.42

Fill in: inhibition of Cc1ccc(OCC(O)C(C)NC(C)C)c2c1CCC2 (stereo not given) is ___
-9.41

Fill in: inhibition of C=C(C)[C@H]1CN[C@H](C(=O)O)[C@H]1CC(=O)O is ___
-6.14

Fill in: inhibition of CCCC(=O)N[C@@H](Cc1ccc(O)cc1)C(=O)NCCCCCCCNCCCCN is ___
-0.213

Fill in: inhibition of Cc1csc2c(N[C@@H](C)CN3CCN(S(=O)(=O)c4ccc(Cl)c(Cl)c4)CC3)ncnc12 is ___
-1.28

Fill in: inhibition of NCCc1ccc(O)c(O)c1 is ___
-1.68

* * *

target: Uracil-DNA glycosylase (Homo sapiens); details: Compound Concentration 10.0 uM, Hit No
Description: Inhibition of UNG by quantifying inhibition of UNG-mediated cleavage and dissociation of quenched duplex DNA oligonucleotides, measured as fluorescence at 594 nm. To generate a functional strand incision and increase turn-over this assay is coupled to APE1.
Listed here are molecules together with their documented inhibition.
Quick note: give the figure in %, leave out the unit.

Answered examples (3):
Oc1cc2c(cc1O)CN(C(=S)NCCc1ccc(Cl)cc1)CCC2; 3.52
O=C(Nc1ccccc1Br)N[C@@H]1CCN(c2ccc(C(F)(F)F)cn2)C1; 2.31
Nc1ccc(C(=O)Nc2cccc(-c3nc(N4CCOCC4)c4oc5ncccc5c4n3)c2)cn1; 2.33

With those in mind, consider the next molecule.
// map Fc1cccc(/C=N/N=C/c2cccc(F)c2)c1 to recorded inhibition (system: Uracil-DNA glycosylase (Homo sapiens))
-6.06

* * *

Listed here are compounds together with their documented inhibition.
molecular target: Uracil-DNA glycosylase (Homo sapiens) (UniProt P13051); settings: Compound Concentration 10.0 uM, Hit No;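 also: UNG excision on a quenched double-stranded DNA oligo probe, with APE1 added for strand incision and turnover, read as fluorescence at 594 nm as strands separate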
Sequence (P13051 whole entry): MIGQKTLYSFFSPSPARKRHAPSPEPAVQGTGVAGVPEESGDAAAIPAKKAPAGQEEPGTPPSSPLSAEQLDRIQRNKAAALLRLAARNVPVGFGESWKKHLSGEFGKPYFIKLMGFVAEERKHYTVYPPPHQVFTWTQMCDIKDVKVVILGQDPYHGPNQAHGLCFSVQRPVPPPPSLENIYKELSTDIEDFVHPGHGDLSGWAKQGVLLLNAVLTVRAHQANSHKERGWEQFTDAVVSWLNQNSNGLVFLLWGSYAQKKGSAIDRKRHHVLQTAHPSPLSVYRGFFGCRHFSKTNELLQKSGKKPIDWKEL
Quick note: give the figure in %, leave out the unit.

Cc1cc([C@@H](C)Nc2ccccc2C(=O)O)c2nc(N3CCOCC3)cc(=O)n2c1; 3.71
COc1cc(/C=C/C(=O)NCCn2c(C)cc3ccccc32)cc(OC)c1OC; -0.0662
CC(C)(C)c1ccc(C(=O)Nc2cn3cc(-n4ccnc4)ccc3n2)cc1; 4.09

With those in mind, consider the next compound.
Fill in: inhibition of O=C(Nc1cccc(C(F)(F)F)c1)c1cc(Cl)ccc1O is ___
-2.86

* * *

target: Endonuclease 8-like 1 (Homo sapiens); conditions: Compound Concentration 10.0 uM, Hit No;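 also: fluorescence at 594 nm from quenched duplex DNA oligonucleotides released by NEIL1 cleavage and strand separation, reported as reduction of this enzyme activity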
Description: Inhibition of NEIL1 by quantifying inhibition of NEIL1-mediated cleavage and dissociation of quenched duplex DNA oligonucleotides, measured as fluorescence at 594 nm.
assay-metric: inhibition (%)
Quick note: give the figure in %, leave out the unit.

Answered examples (8):
O=C(NCCCN1CCOC1=O)c1cnc(NCc2cc(Br)ccc2Br)nc1NC1CCCC1; 5.29
O=[N+]([O-])c1ccc2nc(COCc3nc4ccc([N+](=O)[O-])cc4[nH]3)[nH]c2c1; 12.5
CN(CCN1CCC(OC(=O)Nc2ccccc2-c2ccccc2)CC1)C(=O)c1ccc(CN2CCC(C(N)=O)CC2)cc1; 3.95
CC(C)(C)c1ccc(S(=O)(=O)Nc2ccc(Cl)cc2C(=O)c2cc[n+]([O-])cc2)cc1; 3.35
Cc1onc(-c2ccccc2Cl)c1C(=O)N(C)c1ccc(Cl)cc1; -2.13
Fc1ccc(-c2c3cccc(C(F)(F)F)c3nn2Cc2ccc(F)cc2Cl)cc1; -7.41
O=C1NCN(c2ccccc2)C12CCN(CC1COc3ccccc3O1)CC2 (centres undefined); -5.84
CCOC(=O)C1Cc2ccccc2CN1C(=O)c1ccc(SC)s1 (centres undefined); -1.35

Fill in: inhibition of O=S1(=O)c2cccc3cccc(c23)N1CCCN1CCN(c2ccc(F)cc2)CC1 is ___
-4.8

Fill in: inhibition of Cc1cc(C(=O)N2Cc3cnn(C)c3Nc3ccccc32)ccc1CNC(=O)N1CCC[C@H]1C(=S)N1CCCN(C)CC1 is ___
-1.83

Fill in: inhibition of Cc1cc(C)cc(C(=O)N(C)[C@H](Cc2ccc(-c3ccccc3)cc2)C(=O)N[C@@H](Cc2c[nH]c3ccccc23)C(=O)O)c1 is ___
-1.83

Fill in: inhibition of O=C(O)c1ccc2cc(-c3ccc(O)c(C45CC6CC(CC(C6)C4)C5)c3)ccc2c1 is ___
-4.23

Fill in: inhibition of COC(=O)C1=C(C)NC(C)=C(C(=O)OC(C)C)C1c1cccc2nonc12 (centres undefined) is ___
1.94

Fill in: inhibition of CN1CCN(C(=O)c2ccc3cc2OCCOCCNc2ccn4ncc-3c4n2)CC1 is ___
1.85

Fill in: inhibition of Cc1c(N2CCNCC2)nc2ccc(Br)cc2c1C(=O)NC[C@H](CCC(=O)O)c1ccccc1Cl is ___
-1.8

Fill in: inhibition of COCCn1c(C)c(C)s/c1=N\C(=O)C1C(C)(C)C1(C)C is ___
3.06

* * *

biological target: Endonuclease III-like protein 1 (Homo sapiens) (UniProt P78549); conditions: Compound Concentration 1.0 uM, Hit No
Sequence (P78549 whole entry): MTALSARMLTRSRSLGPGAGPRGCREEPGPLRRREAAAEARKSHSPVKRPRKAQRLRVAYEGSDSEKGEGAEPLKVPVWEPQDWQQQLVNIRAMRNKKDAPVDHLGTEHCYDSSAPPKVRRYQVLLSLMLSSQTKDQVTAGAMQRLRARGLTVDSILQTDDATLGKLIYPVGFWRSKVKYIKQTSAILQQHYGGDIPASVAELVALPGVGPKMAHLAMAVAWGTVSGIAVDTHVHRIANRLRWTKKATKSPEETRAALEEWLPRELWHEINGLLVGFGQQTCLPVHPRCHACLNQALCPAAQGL
Description: Inhibition of NTHL1 by quantifying inhibition of NTHL1-mediated cleavage and dissociation of quenched duplex DNA oligonucleotides, measured as fluorescence at 594 nm.
Listed here are molecules together with their documented inhibition.
Quick note: give the figure in %, leave out the unit.

Answered examples (5):
COCCOc1nc(-c2ccc(Cl)nc2)nc2c1CN(C(=O)c1ncn3ccccc13)CC2; -3.92
CN1CCN(C(=O)C(C)(C)c2ccc(C(=O)Nc3cn4cc(-c5cc(C(C)(C)C)cc(C(C)(C)C)c5)ccc4n3)cc2)CC1; -0.61
CN(C)C(=O)/C(C#N)=C/c1ccc(-c2nc3cnc4c(ccn4C)c3n2C2CCCCC2)o1; 0.785
CN(C)C(=O)/C(C#N)=C/c1ccc(-c2nc3cnc4[nH]ccc4c3n2C2CCCCC2)o1; -5.49
Cc1cccc(-c2[nH]c(CNc3ccccc3F)nc2-c2ccc3ncnn3c2)n1; -6.89

With those in mind, consider the next molecule.
// map N#Cc1cnc(Nc2cc(NC[C@H]3CNCCO3)c(C(F)(F)F)cn2)cn1 to recorded inhibition (system: Endonuclease III-like protein 1 (Homo sapiens) (UniProt P78549))
-0.61

* * *

Listed here are compounds together with their documented inhibition.
target: N-glycosylase/DNA lyase (Homo sapiens) (UniProt O15527); conditions: Compound Concentration 10.0 uM, Hit No;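 also: OGG1 cleavage of a quenched duplex DNA oligonucleotide, coupled to APE1 for strand incision, read as fluorescence at 594 nm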
Quick note: give the figure in %, leave out the unit.

COc1ccccc1N1CCN(CCCCNC(=O)c2ccc3ccccc3c2)CC1; 9.63
C[C@@H]1C[C@H](C)CN(c2ncc(Cl)c(Nc3ccc4c(c3)cc(OC(C)(C)C(=O)O)c(=O)n4C)n2)C1; 19.3

Fill in: inhibition of Cn1nc(C(F)(F)F)cc1-c1cnc(N2CCc3cc(S(=O)(=O)Nc4c(F)cc(Cl)cc4F)cc(N4CCCC4=O)c32)nc1 is ___
12.6

Fill in: inhibition of CCc1cc2c(c(CC)n1)CCC(=O)N2Cc1ccc(-c2ccccc2-c2nnn[nH]2)cc1 is ___
6.16

Fill in: inhibition of O=c1ccc2ccc(OCCCCN3CCN(c4cccc5sccc45)CC3)cc2[nH]1 is ___
-3.25
